All values here come from PubChem BioAssay (NCI).

Tested on: NCI-H23 lung
Test: NCI-60 one-dose screen, 48 h (100 = growth as untreated, 0 = no growth, -100 = all killed)
Details: 10 µM unless noted
This is part of a sample that, as a whole, favours compounds with a hit. Of some 83,000 tested, about 20% had one in any assay. Active and inactive are the calls of the source. Rule for the calls: active = growth percent below 10; inactive = the rest.

compoundStructureString | assayedTarget | growth
Cn1c(=O)n(C)c2cc(CNCCNc3ccnc4cc(Cl)ccc34)ccc21 | NCI-H23 lung | 95.3% (inactive)
O=C(Nc1ccc(F)c(Cl)c1)Nc1ccc(Cl)c(Cl)c1 | NCI-H23 lung | 86.1% (inactive)
COc1ccc(Nc2cc(C)nc(NCc3ccccc3)n2)cc1 | NCI-H23 lung | 56% (inactive)
